Biological target: T1, soluble human CD3 epsilon chain (human, UniProt P07766 23-126)
T1 construct: also called CD3ε
T1 sequence (P07766 23-126 limits assumed): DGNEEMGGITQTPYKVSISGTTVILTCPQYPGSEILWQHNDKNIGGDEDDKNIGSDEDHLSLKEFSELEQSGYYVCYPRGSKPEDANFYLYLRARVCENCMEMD
Experiment: SPR
Test readout: pKd
Would you please state pKd, meaning minus log10 of the concentration in mol/L, as a bare number?

Find the measured pKd of TR01H017-E22Hh/none-Hi-Kn010G3/L0000-k0 (antibody, V domains shown, one-arm) VH: QVQLVESGGGLVQPGGSLRLSCAASGFTFSNAWMHWVRQAPGKGLEWVAQIKAKSNNYATYYAESVKGRFTISRADSKNSIYLQMNSLKTEDTAVYYCRYVHYGAYYGVDIWGQGTTVTVSS VL: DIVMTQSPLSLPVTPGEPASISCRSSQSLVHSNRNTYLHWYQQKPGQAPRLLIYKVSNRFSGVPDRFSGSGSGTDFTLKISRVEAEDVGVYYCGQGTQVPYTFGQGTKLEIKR and report it.
7.46

Please look at this binder and report its pKd: TR01H083-E22Hh/none-Hi-Kn010G3/L0262-k0 (antibody, V domains shown, one-arm) VH: QVQLVESGGGLVQPGRSLRLSCAASGFTFSNAWMHWVRQAPGKGLEWVAQIKDKSNNYATYYAESVKGRFTISRADSKNSIYLQMNSLKTEDTAVYYCRYVHYAAGYGVDIWGQGTTVTVSS VL: DIVMTQSPLSLPVTPGEPASISCRSSQPPVHSNRNTYLHWYQQKPGQAPRLLIYKVSNRFSGVPDRFSGSGSGTDFTLKISRVEAEDVGVYYCAQGTQVPYTFGQGTKLEIK
8.61
